B1: EEHEE_rd3_1049 (parent)
chain: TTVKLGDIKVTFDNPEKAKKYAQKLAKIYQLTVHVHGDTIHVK

- Variants of: B1
- test_name: folding stability dG (cDNA display proteolysis); higher = more stable
- experimental_conditions: PBS, room temperature
assay_endpoint: folding stability dG (kcal/mol)
Number only, in kcal/mol; omit the unit.

Entry L25S : reported folding stability dG = ?
-0.33

Try the variant I40C
0.854

Try the variant Y21W
2.22

Try the variant I8N
1.21

Try the variant T32W
1.48

Try the variant A22F
1.08

Try the variant Q30Y
1.65

Try the variant P15R
1.88

Try the variant T1G
0.959

Try the variant Q30W
1.71

Try the variant H41K
1.1
